# procedureSummary: Total clearance in Sprague-Dawley rat at 15 mg/kg, po
# Assay type: ADME, organism-based
# testContext: in vivo
endpoint: CL/F

Quick one: give measured CL/F for CN(C)CCOc1ccc2ncnc(NC3CCN(CC4CN(c5ccc(S(=O)(=O)C6CC6)cc5)C4)CC3)c2n1
179 mL/min/kg

###

# procedureSummary: Metabolic stability in Sprague-Dawley rat liver microsome assessed as intrinsic clearance measured upto 60 min by UPLC-MS/MS analysis
# Type: ADME
# testContext: microsomes, 1 h
endpoint: CLint (µL/min/mg)
# output: bare number, implied unit µL/min/mg

Answer with reported CLint of CN(C)CCOc1ccc2ncnc(NC3CCN(CC4CN(c5ccc(S(=O)(=O)C6CC6)cc5)C4)CC3)c2n1
9.7

The origin of these recorded values is ChEMBL document CHEMBL5104196.
